assay: Inhibition of recombinant full length Aedes aegypti AChE1 expressed in baculovirus-infected Sf9 insect cells using acetylthiocholine iodide as substrate measured over 60 secs by Ellman's method
recorded-endpoint: IC50 (µM)
One number for each entry, in µM.

Solved cases below.
COc1ccccc1NC(=S)NCCN(C)C :: 6
S=C(NCCN1CCCCC1)Nc1cccc(Cl)c1 :: 120

Look up IC50 for the entries below, preserving their order.
1. COc1ccc(NC(=S)NCCN(C)C)cc1Cl
2. COc1ccccc1NC(=S)NCCN1CCCCC1
3. COc1ccc(NC(S)=NCCN2CCC(C)CC2)cc1Cl
4. CN(C)CCN=C(S)Nc1cccc(Cl)c1

Result:
1. 16
2. 22
3. 0.63
4. 83
